// data source = PubChem BioAssay (NCI)

system: NCI-H322M lung; assay: NCI-60 one-dose screen, 48 h (100 = growth as untreated, 0 = no growth, -100 = all killed); conditions: 10 µM unless noted
Compounds without any hit were thinned out: in the full panel of roughly 83,000, 20% have a hit.
Please provide measured growth for the entries that follow.
Give bare numbers, in %.

compound: C#CCOc1cc(/C=N/Nc2nc(-c3ccc(OC)cc3)cs2)ccc1O
measured-target: NCI-H322M lung
unit-string: %
growth: 92.4

compound: COc1cccc2cc(N(C)c3ncnc4ccccc34)ccc12
measured-target: NCI-H322M lung
unit-string: %
growth: 48

compound: COc1ccc(S(=O)(=O)N(C)c2oc(-c3ccc(Cl)cc3)nc2C#N)cc1
measured-target: NCI-H322M lung
unit-string: %
growth: 98.2

compound: C=C(c1ccc(C(=O)O)c(F)c1)c1cc2c(cc1C)C(C)(C)C=CC2(C)C
measured-target: NCI-H322M lung
unit-string: %
growth: 90.7

compound: CCOC(=O)C1=CCC(n2cc(F)c(=O)[nH]c2=O)O1 (centres undefined)
measured-target: NCI-H322M lung
unit-string: %
growth: 127

compound: COCCNC(=O)Cc1cc(-c2ccc(Cl)cc2)n(-c2ccccc2)c1C
measured-target: NCI-H322M lung
unit-string: %
growth: 95.4

compound: CC(=O)[C@H]1CC[C@]2(C)[C@@H]1CC[C@@H]1[C@@]3(C)C/C(=C/c4cccnc4)C(=O)C(C)(C)[C@@H]3CC[C@]12C
measured-target: NCI-H322M lung
unit-string: %
growth: 91.6

compound: Cc1cc2c(C(C)C)c(O)c(O)c(/C=N/O)c2c(O)c1-c1c(C)cc2c(C(C)C)c(O)c(O)c(/C=N/O)c2c1O
measured-target: NCI-H322M lung
unit-string: %
growth: 35.9

Field: next compound
Data request: Reported growth, compound `CCOC(=O)c1cc(C(=O)c2cc(OC)cc(OC)c2)n2ccccc12` : ____
Data returned: 86.3

* * *

test system: OVCAR-5 ovarian; test: NCI-60 one-dose screen, 48 h; settings: 10 µM unless noted
The panel holds about 83,000 compounds, 20% with a hit somewhere; the sample as a whole holds those more often. Active and inactive are the calls of the source. How the source made its calls: active means growth percent below 10; inactive means the rest.
Outcome (select one): y for active, n for inactive

smiles-entry: O=C(O)c1cc2ccccc2s1
discrete-label: n

smiles-entry: O=C(Nc1cccc2c1C(=O)c1cccc(NC(=O)c3ccc(C(=O)Nc4cccc5c4C(=O)c4cccc(NC(=O)c6ccccc6)c4C5=O)cc3)c1C2=O)c1ccccc1
discrete-label: n

smiles-entry: CS(=O)(=O)Nc1cc(-c2ccc3ncnc(Nc4cccc(Cl)c4)c3c2)cnc1Cl
discrete-label: y

Data request: Tell me the assay call for `Nc1ccc(Cl)c2c(=O)c3ccccc3[nH]c12` please.
Data returned: n

Data request: Also, `Cn1ncc(CC(=O)O)c1-n1nnc2cc(Cl)ccc2c1=O` please.
Data returned: n

* * *

tested on: M14 melanoma; test: NCI-60 one-dose screen, 48 h (100 = growth as untreated, 0 = no growth, -100 = all killed); conditions: 10 µM unless noted
Compounds without any hit were thinned out: in the full panel of roughly 83,000, 20% have a hit.
assay-endpoint: growth (%)
Answers are plain numbers, in %.

molecule: CC1=C([Se]CC(OC(=O)[C@@H](CO)NC(=O)OC(C)(C)C)C(=O)NCCCCCC(=O)OCc2ccccc2)C(=O)c2ccccc2C1=O (stereo not given in full)
recorded-measurement: -95
//
molecule: CC(=O)Oc1ccccc1C(=O)N(Cc1ccc2c(Cl)cc(Cl)c(O)c2n1)c1ccccc1
recorded-measurement: 51
//
molecule: N#C/C(=N\Nc1ccccc1)C(=O)Nc1cc(-c2ccccc2)nn1-c1ccccc1
recorded-measurement: 33.7
//
molecule: C#CCOc1cccc(-c2ncnc3cc(NC(=O)CCl)ccc23)c1
recorded-measurement: -52.3
//
molecule: CCCCCCCCOC(=O)c1c(C)[nH]c(/C=C2\N=C(c3ccc[nH]3)C=C2OC)c1C
recorded-measurement: -56.1

Could I get growth for every one of these entries?
1. CCOC(=O)CSc1nc2sc3c(c2c(=O)n1-c1ccccc1)CCCCC3
2. COc1ccc(NC(=O)c2ccc(Cl)cc2Cl)cc1
3. Cc1ccc(Nc2oc(-c3ccccc3)nc2[P+](c2ccccc2)(c2ccccc2)c2ccccc2)cc1
4. COC1CC(O)C2=C(CC3C(/C(C)=C\CC=C(C)C)CCC3(C)O2)C1=O (stereo not given)
5. COc1cc(C(=O)c2c(-c3ccccc3)oc3ccccc23)cc(OC)c1O
6. CNC1=C([N+](=O)[O-])C(c2ccc(OC)cc2)C(C#N)=C(c2ccc[nH]2)O1 (stereo not given)

Data returned:
1: 108; 2: 93.3; 3: -76.2; 4: 106; 5: 16.6; 6: 104
